# MEASUREMENT_DESCRIPTION: Toxicity in iv dosed NMRI mouse after 14 days
# Assay type: organism-based
# COND: in vivo
PROPERTY_MEASURED: LD50 at 336 h (mg/kg)
Please reply with the bare figure in mg/kg and do not write the unit itself.

Exercise: Indicate its recorded LD50 at 336 h; the compound in question is C[C@@H]1[C@H](O)[C@@H](C)/C=C/C=C/C=C/C=C/C=C/C=C/C=C/[C@H](O[C@@H]2O[C@H](C)[C@@H](O)[C@H](N)[C@@H]2O)C[C@@H]2O[C@](O)(C[C@@H](O)C[C@@H](O)[C@H](O)CC[C@@H](O)C[C@@H](O)CC(=O)O[C@H]1C)C[C@H](O)[C@H]2C(=O)O [AMPHOTERICIN B]
Solution: 3.7
